# Assay system: Branched-chain-amino-acid aminotransferase, mitochondrial (Homo sapiens)
# Sequence (O15382 whole entry): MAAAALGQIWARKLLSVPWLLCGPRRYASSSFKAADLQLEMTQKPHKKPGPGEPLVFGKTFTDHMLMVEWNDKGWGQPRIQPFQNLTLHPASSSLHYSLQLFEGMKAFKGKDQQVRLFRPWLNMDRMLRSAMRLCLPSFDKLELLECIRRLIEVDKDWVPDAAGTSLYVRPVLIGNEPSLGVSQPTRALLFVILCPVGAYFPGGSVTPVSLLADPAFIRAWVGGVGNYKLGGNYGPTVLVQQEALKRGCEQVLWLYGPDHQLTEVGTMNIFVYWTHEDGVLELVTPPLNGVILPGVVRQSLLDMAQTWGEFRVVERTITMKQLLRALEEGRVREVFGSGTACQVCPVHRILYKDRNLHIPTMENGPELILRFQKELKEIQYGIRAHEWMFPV
Measured property: IC50 (µM)
Reply with just the number (in µM).

Recorded IC50, per entry:
O=C(Nc1ccc(-c2cc[nH]n2)cc1)c1ccccc1    5.01
NC(=O)c1ccc(NC(=O)c2ccccc2)cc1    50.1
Cc1ccccc1NC(=O)c1sc2ncnc(O)c2c1C    50.1
NC(=O)c1sccc1-c1ccccc1    158
CC(C)C(Sc1ncnc2ccccc12)C(=O)O (centres undefined)    7.94

Request body: readout IC50, system Branched-chain-amino-acid aminotransferase, mitochondrial (Homo sapiens), query `Cc1c(C(=O)Nc2ccccc2)sc2ncn(C)c(=O)c12` . Return the value.
7.94

Observed IC50 on Branched-chain-amino-acid aminotransferase, mitochondrial (Homo sapiens) for `O=C(Nc1cncnc1)c1ccccc1` , please.
1000

Value wanted: IC50 (Branched-chain-amino-acid aminotransferase, mitochondrial (Homo sapiens)) of entry `Cc1c(C(=O)Nc2ccccc2)sc2ncnc(O)c12`
7.94
